- target-of-assay: GDP-bound KRAS wild-type protein (Homo sapiens, UniProt P01116)
- Sequence (P01116 whole entry): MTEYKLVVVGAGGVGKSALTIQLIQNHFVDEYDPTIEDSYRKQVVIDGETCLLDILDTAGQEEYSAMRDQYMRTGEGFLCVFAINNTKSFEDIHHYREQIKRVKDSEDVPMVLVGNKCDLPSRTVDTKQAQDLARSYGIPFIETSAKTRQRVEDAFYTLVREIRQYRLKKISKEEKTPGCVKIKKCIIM
- measurement-protocol: Binding to KRAS by surface plasmon resonance (SPR), Single Cycle Kinetics
- run-conditions: SPR, Single Cycle Kinetics, GDP-bound KRAS wild-type protein; read-out: KRAS KD
measured-quantity: pKd
Please treat pKd as minus the base-10 logarithm of the molar concentration.

CCC[C@H]1C(=O)N[C@@H]([C@@H](C)CC)C(=O)N(C2CC2)CC(=O)N(C)[C@H]2C/C=C\CCN(C2=O)[C@@H](Cc2ccc(C(F)(F)F)cc2)C(=O)N(C)CC(=O)N[C@@H](CCc2ccc(C(F)(F)F)c(OC)c2)C(=O)N2C[C@H](OCC)C[C@H]2C(=O)N(C)C2(CCC2)C(=O)N(C)[C@@H](C(CC)CC)C(=O)N(C)[C@H](C(=O)N(C)C)CC(=O)N1C [PP2313]    9.31
CCCOC[C@H]1C(=O)N[C@@H]([C@@H](C)CC)C(=O)N(C2CC2)CC(=O)N(C)[C@H]2C/C=C\CCN(C2=O)[C@@H](Cc2ccc(C)cc2)C(=O)N(C)CC(=O)N[C@@H](CCc2ccc(C(F)(F)F)c(OC)c2)C(=O)N2C[C@H](OCC)C[C@H]2C(=O)N(C)C2(CCC2)C(=O)N(C)[C@@H](C(CC)CC)C(=O)N(C)[C@H](C(=O)N(C)C)CC(=O)N1C [PP2327]    9.30
CCO[C@@H]1C[C@H]2C(=O)NC3(CCC3)C(=O)N(C)[C@@H](C3CCCCC3)C(=O)N(C)[C@H](C(=O)N(C)C)CC(=O)N(C)[C@@H](CC)C(=O)N[C@@H]([C@@H](C)CC)C(=O)N(C)CC(=O)N(C)[C@H]3C/C=C\CCN(C3=O)[C@@H](Cc3ccc(C(F)(F)F)cc3)C(=O)N(C)CC(=O)N[C@@H](CCc3cc(F)c(C(F)(F)F)c(F)c3)C(=O)N2C1 [PP1086]    9.89
CCC[C@H]1C(=O)N[C@@H]([C@@H](C)CC)C(=O)N2CCC[C@H]2C(=O)N(C)[C@H]2C/C=C\CCN(C2=O)[C@@H](CC2CCC(F)(F)CC2)C(=O)N(C)CC(=O)N[C@@H](CCc2ccc(C(F)(F)F)c(OC)c2)C(=O)N2C[C@H](OCC)C[C@H]2C(=O)N(C)C2(CCC2)C(=O)N(C)[C@@H](C2CCCC2)C(=O)N(C)[C@H](C(=O)N(C)C)CC(=O)N1C [PP2356]    9.03
CCO[C@@H]1C[C@H]2C(=O)NC3(CCC3)C(=O)N(C)[C@@H](C3CCCC3)C(=O)N(C)[C@H](C(=O)N3CCOCC3)CC(=O)N(C)[C@@H](CC(F)F)C(=O)N[C@@H]([C@@H](C)CC)C(=O)N(C)CC(=O)N(C)[C@H]3CCCCCN(C3=O)[C@@H](Cc3ccc(C(F)(F)F)cc3)C(=O)N(C)CC(=O)N[C@@H](CCc3cc(F)c(C(F)(F)F)c(F)c3)C(=O)N2C1 [PP0854]    9.42
CCO[C@@H]1C[C@H]2C(=O)N(C)C3(CCC3)C(=O)N(C)[C@@H](C(CC)CC)C(=O)N(C)[C@H](C(=O)N(C)C)CC(=O)N(C)[C@@H](COC)C(=O)N[C@@H]([C@@H](C)CC)C(=O)N(C)CC(=O)N(C)[C@H]3C/C=C\CCN(C3=O)[C@@H](CC3CCCCC3)C(=O)N(C)CC(=O)N[C@@H](CCc3ccc(C(F)(F)F)c(OC)c3)C(=O)N2C1 [PP2335]    8.85
CCO[C@@H]1C[C@H]2C(=O)NC3(CCC3)C(=O)N(C)[C@@H](C(CC)CC)C(=O)N(C)[C@H](C(=O)N3CCCC3)CC(=O)N(C)[C@H]3CCCCC/C=C/c4ccc(cc4)C[C@@H](C(=O)N(C)CC(=O)N[C@@H](CCc4ccc(Cl)c(Cl)c4)C(=O)N2C1)N1CC/C=C\C[C@@H](C1=O)N(C)C(=O)CN(C)C(=O)[C@H]([C@@H](C)CC)NC3=O [PP3052]    9.59
CCO[C@@H]1C[C@H]2C(=O)NC3(CCC3)C(=O)N(C)[C@@H](C3CCCC3)C(=O)N(C)[C@H](C(=O)N3CCOCC3)CC(=O)N(CC)[C@@H](CC(C)C)C(=O)N[C@@H]([C@@H](C)CC)C(=O)N(C)CC(=O)N(C)[C@H]3CC(C)=CCN(C3=O)[C@@H](Cc3ccc(C(F)(F)F)cc3)C(=O)N(C)CC(=O)N[C@@H](CCc3cc(F)c(C(F)(F)F)c(F)c3)C(=O)N2C1 [PP1044]    8.74

## Task Give the value of pKd reported for the following: CCCN(C)C(=O)[C@@H]1CC(=O)N(C)[C@@H](C)C(=O)N[C@@H]([C@@H](C)CC)C(=O)N(C)CC(=O)N(C)[C@H]2C/C=C\CCN(C2=O)[C@@H](Cc2ccc(C(F)(F)F)cc2)C(=O)N(C)CC(=O)N[C@@H](CCc2cc(F)c(C(F)(F)F)c(F)c2)C(=O)N2C[C@H](OCC)C[C@H]2C(=O)NC2(CC(F)(F)C2)C(=O)N(C)[C@@H](C2CCCC2)C(=O)N1C [PP1731]
## Result 10.15

## Task Output measured pKd for this item: CCOC[C@H]1C(=O)N[C@@H]([C@@H](C)CC)C(=O)N(C)CC(=O)N(C)[C@H]2C/C=C\CCN(C2=O)[C@@H](Cc2ccc(C)cc2)C(=O)N(C)CC(=O)N[C@@H](CCc2cc(F)c(C(F)(F)F)c(F)c2)C(=O)N2C[C@@H](C)C[C@H]2C(=O)NC2(CC(C)(C)C2)C(=O)N(C)[C@@H](C2CCCC2)C(=O)N(C)[C@H](C(=O)N(C)C)CC(=O)N1C [PP2439]
## Result 9.92

## Task Return pKd for the following compound: CCO[C@@H]1C[C@H]2C(=O)NC3(CC(C)(C)C3)C(=O)N(C)[C@@H](C(CC)CC)C(=O)N(C)[C@H](C(=O)N(C)C)CC(=O)N(C)[C@@H](C(C)C)C(=O)N[C@@H]([C@@H](C)CC)C(=O)N(C)CC(=O)N(C)[C@H]3C/C=C\CCN(C3=O)[C@@H](Cc3ccc(C(F)(F)F)cc3)C(=O)N(C)CC(=O)N[C@@H](CCc3ccc(C(F)(F)F)c(OC)c3)C(=O)N2C1 [PP2165]
## Result 9.29

The values you see were collected from patent US20240158446A1.
